# credit: ChEMBL document CHEMBL1141957

The compounds listed here are annotated with their inhibition.
# study target: Replicase polyprotein 1a (Severe acute respiratory syndrome-related coronavirus)
# assay protocol: Inhibition of Mpro in SARS-CoV at 100 uM in FRET-based assay

# compound, study target, inhibition / %
records = [
    ("COC(=O)C1CN1[C@@H](C)C(=O)OC (stereo not given in full)", "Replicase polyprotein 1a (Severe acute respiratory syndrome-related coronavirus)", 39),
    ("C[C@H]1O[C@H]1C(=O)N[C@@H](Cc1ccccc1)C(=O)OCc1ccccc1", "Replicase polyprotein 1a (Severe acute respiratory syndrome-related coronavirus)", 15),
    ("CC1C(C(=O)N[C@@H](Cc2ccccc2)C(=O)OCc2ccccc2)N1Cc1ccccc1 (stereo not given in full)", "Replicase polyprotein 1a (Severe acute respiratory syndrome-related coronavirus)", 34),
    ("C[C@@H]1O[C@@H]1C(=O)N[C@@H](Cc1ccccc1)C(=O)OCc1ccccc1", "Replicase polyprotein 1a (Severe acute respiratory syndrome-related coronavirus)", 28),
    ("COC(=O)C1CN1[C@@H](CC(=O)OCc1ccccc1)C(=O)OCc1ccccc1 (stereo not given in full)", "Replicase polyprotein 1a (Severe acute respiratory syndrome-related coronavirus)", 28),
    ("O=C(N[C@@H](Cc1ccccc1)C(=O)OCc1ccccc1)C1C(c2ccccc2)N1Cc1ccccc1 (stereo not given in full)", "Replicase polyprotein 1a (Severe acute respiratory syndrome-related coronavirus)", 30),
    ("COC(=O)C1CN1CCCC[C@H](NC(=O)OCc1ccccc1)C(=O)OC (stereo not given in full)", "Replicase polyprotein 1a (Severe acute respiratory syndrome-related coronavirus)", 48),
    ("COC(=O)C1CN1[C@@H](CC(C)C)C(=O)OCc1ccccc1 (stereo not given in full)", "Replicase polyprotein 1a (Severe acute respiratory syndrome-related coronavirus)", 34),
    ("COC(=O)C1CN1[C@H](C(=O)OC)C(C)C (stereo not given in full)", "Replicase polyprotein 1a (Severe acute respiratory syndrome-related coronavirus)", 30),
    ("CCOC(=O)C1OC1C(=O)N[C@@H](Cc1ccccc1)C(=O)OCc1ccccc1 (stereo not given in full)", "Replicase polyprotein 1a (Severe acute respiratory syndrome-related coronavirus)", 22),
]
